Data origin, for the record: PubChem BioAssay (NCI)

Test system: NCI-H23 lung
assay.info: NCI-60 one-dose screen, 48 h (100 = growth as untreated, 0 = no growth, -100 = all killed)
condition.summary: 10 µM unless noted
About 83,000 compounds went through this panel and 20% of them were active in at least one assay; those are over-represented in the sample as a whole.
assay.metric: growth (%)
One number for each entry, in %.

>  <compound>
COc1ccc(-c2nc3sc(-c4ccc(Cl)cc4)cn3n2)cc1

>  <target.of.assay>
NCI-H23 lung

>  <assay.metric>
growth

>  <units.label>
%

>  <numeric.result>
58.5

$$$$
>  <compound>
COc1ccc(C(=S)N2CCN(c3cccc(C)c3)CC2)cc1OC

>  <target.of.assay>
NCI-H23 lung

>  <assay.metric>
growth

>  <units.label>
%

>  <numeric.result>
65.2

$$$$
>  <compound>
Cc1cccc(OCC(O)CN2CCN(c3ccc(Cl)cc3)CC2)c1 (centres undefined)

>  <target.of.assay>
NCI-H23 lung

>  <assay.metric>
growth

>  <units.label>
%

>  <numeric.result>
95.2

$$$$
>  <compound>
O=c1c2cc(C(F)(F)F)ccc2sc2c(NCCCNCCO)nc3ccccc3c12

>  <target.of.assay>
NCI-H23 lung

>  <assay.metric>
growth

>  <units.label>
%

>  <numeric.result>
45

$$$$
>  <compound>
CCOC(=O)c1cn2ncnc(Oc3ccc(NC(=O)NCCN(C)C)c(Cl)c3)c2c1C

>  <target.of.assay>
NCI-H23 lung

>  <assay.metric>
growth

>  <units.label>
%

>  <numeric.result>
75.5

$$$$

Give growth for each of the items listed below.
1. COc1cc(/C=C2\C(=O)Nc3ccc(Br)cc32)cc(OC)c1OC
2. CCCCCCNC(=O)Oc1ccc(/C(=C(\C)c2ccc(Cl)cc2)c2ccc(OCCN(CC)CC)cc2)cc1
3. Cc1[nH]c(C(=O)Nc2ccc(C(=O)NCCN)cc2OC(C)C)c(Cl)c1Cl
4. CCOC(=O)c1c(C)nc2c(c1N)CC(=O)N2Cc1ccc(F)cc1

Reply text:
1: 63.5; 2: 67.1; 3: 79.5; 4: 99.8

###

Tested on: SF-295 CNS
assay.info: NCI-60 one-dose screen, 48 h
condition.summary: 10 µM unless noted
The panel holds about 83,000 compounds, 20% with a hit somewhere; the sample as a whole holds those more often. The source made the active and inactive calls. The calls were made as follows: active = growth percent below 10; inactive = the rest.
Your answer must be one of the following: active, inactive

Use the examples below as a reference point.
>  <molecule>
CCCCn1c(=O)c(-c2cc(-c3ccc(Cl)cc3)nc(-c3ccc(Cl)cc3)c2)cc2cc(C)ccc21

>  <target.of.assay>
SF-295 CNS

>  <assigned.label>
inactive

$$$$
>  <molecule>
Cc1nc2cnc(N)c(C#Cc3cncc(C(=O)Nc4ccc(CN5CCN(C)CC5)c(C(F)(F)F)c4)c3)c2nc1C

>  <target.of.assay>
SF-295 CNS

>  <assigned.label>
inactive

$$$$
>  <molecule>
CC(=O)OC[C@H]1OC(Sc2sc(C(=O)c3ccc(C)cc3)c(N)c2-c2nc3ccccc3s2)[C@H](OC(C)=O)[C@@H](OC(C)=O)[C@@H]1OC(C)=O (some centres not stated)

>  <target.of.assay>
SF-295 CNS

>  <assigned.label>
inactive

$$$$
>  <molecule>
COc1cc(C)c(Cc2cnc(N)nc2N)cc1OC

>  <target.of.assay>
SF-295 CNS

>  <assigned.label>
inactive

$$$$
>  <molecule>
O=CN1N=C(c2ccc(Nc3ccnc4cc(Cl)ccc34)cc2)CC1c1ccccc1 (configuration not stated)

>  <target.of.assay>
SF-295 CNS

>  <assigned.label>
inactive

$$$$

Inquiry: Each molecule tested received a call. Report the one for `COc1cc2cc(Oc3ccc(NC(=O)Nc4cccc(C(F)(F)F)c4)cc3)c(C)nc2cc1OCCN1CCOCC1` .
Reply text: inactive

###

System: NCI-H23 lung
assay.info: NCI-60 one-dose screen, 48 h (100 = growth as untreated, 0 = no growth, -100 = all killed)
condition.summary: 10 µM unless noted
Method: Growth inhibition of the NCI-H23 human Non-Small Cell Lung tumor cell line is measured as a screen for anti-cancer activity. Cells are grown in 96 well plates and exposed to the test compound for 48 hours. Compounds are tested at a single concentration, which is 10^-5 M for most compounds. The reported endpoint is percent growth (GI% or GIPRCNT), where numbers from 0 - 100% represent growth inhibition, and numbers from -100% - 0 represent cell death. […]
Compounds without any hit were thinned out: in the full panel of roughly 83,000, 20% have a hit.
assay.metric: growth (%)
Give bare numbers, in %.

Completed entries (count: 2):
>  <molecule>
C=C1CC[C@H](C(C)C)[C@@H]2[C@H]1[C@H]1CC(=C)[C@@H](O)CC[C@@](C)(O)[C@@H]2O1

>  <target.of.assay>
NCI-H23 lung

>  <assay.metric>
growth

>  <numeric.result>
81.6

$$$$
>  <molecule>
CC(=O)CC(c1ccccc1)c1c(C)[nH]c2ccccc12 (stereo not given)

>  <target.of.assay>
NCI-H23 lung

>  <assay.metric>
growth

>  <numeric.result>
81.9

$$$$

Give one value of growth per listed molecule.
1. Cn1cc(-c2cc3ncnc(Nc4ccc(CC(=O)Nc5cc(C(C)(C)C)nn5C)cc4)c3s2)cn1
2. COc1cc(C(=O)c2cnc(-c3c[nH]c4cccc(C)c34)[nH]2)cc(OC)c1OC

Reply text:
1: 60; 2: 24

Inquiry: Using the record for `O=c1c2cc(F)ccc2sc2c(NCCCNCCO)nc3ccccc3c12` , state its measured growth.
Reply text: 66.9

###

System: SK-MEL-2 melanoma
assay.info: NCI-60 one-dose screen, 48 h (100 = growth as untreated, 0 = no growth, -100 = all killed)
condition.summary: 10 µM unless noted
This is part of a sample that, as a whole, favours compounds with a hit. Of some 83,000 tested, about 20% had one in any assay.
assay.metric: growth (%)
Answers are plain numbers, in %.

As a guide, the following entries are already answered.
>  <compound>
O=C(/C=C/c1ccc([N+](=O)[O-])o1)NNC(=O)c1cc2ccccc2cc1O

>  <target.of.assay>
SK-MEL-2 melanoma

>  <numeric.result>
-50.9

$$$$
>  <compound>
COc1ccc(-c2[nH]c3ccc(OC)cc3c2/C=C(\C#N)S(=O)(=O)c2ccccc2)cc1

>  <target.of.assay>
SK-MEL-2 melanoma

>  <numeric.result>
82.6

$$$$
>  <compound>
CCCCCCn1c(-c2ccc(C(=O)O/N=C(\N)c3ccc(OC)cc3)cc2)nc(-c2ccccc2)c1-c1ccccc1

>  <target.of.assay>
SK-MEL-2 melanoma

>  <numeric.result>
47.3

$$$$
>  <compound>
CC([C@H]1CCC2C3CCC4C(=O)C(NC=O)=CC[C@]4(C)C3CC[C@@]21C)N(C)C (stereo not given in full)

>  <target.of.assay>
SK-MEL-2 melanoma

>  <numeric.result>
82.3

$$$$
>  <compound>
CC(=O)Oc1ccccc1C(=O)N=C1[Se]CCCN1C(=O)c1ccccc1OC(C)=O

>  <target.of.assay>
SK-MEL-2 melanoma

>  <numeric.result>
91.4

$$$$

Return reported growth values for all items listed beneath this line.
1. CCOC(=O)c1nc(Nc2ccc(C(C)=O)cc2)sc1C
2. O=[N+]([O-])c1ccc(Cl)c(-c2cc(CCCCO)on2)c1
3. COc1nc2ccccc2cc1-c1nc2c(cnn2-c2ccc(Br)cc2)c(=O)[nH]1
4. Cc1nc2ccccc2c(/C=C/c2ccc(Cl)cc2)c1C(=O)/C=C/c1cccs1

Reply text:
1. 106
2. 118
3. 24.3
4. 90.9

# map each compound to its growth
1. COc1ccc(-c2nnc(COc3ccc(Cl)cc3Cl)o2)cc1OC
2. CCOC(=O)CCN(C(=O)Nc1ccccc1)C1CCCCC1

Reply text:
57.6
119

// each listed compound needs a value for growth
1. CN(C)CCS(=O)(=O)Nc1cc(-c2ccc3ncc(C#N)c(Nc4ccc(F)c(Cl)c4)c3c2)cnc1Cl
2. O=C(CSc1nc2ccccc2[nH]1)Nc1cccc(Cl)c1
3. COc1ccc(C2C(N)=NNC2c2cccc(O)c2)cc1 (stereo not given)
4. Clc1ccc(C(/C=C/c2sc(Cl)nc2Cl)=N/Nc2cc(Cl)cc(Cl)c2)cc1

Reply text:
1. -40.4
2. 104
3. 87.6
4. 106

###

Give growth for every item shown.
System: SK-MEL-5 melanoma
assay.info: NCI-60 one-dose screen, 48 h (100 = growth as untreated, 0 = no growth, -100 = all killed)
condition.summary: 10 µM unless noted
Procedure: Growth inhibition of the SK-MEL-5 human tumor cell line is measured as a screen for anti-cancer activity. Cells are grown in 96 well plates and exposed to the test compound for 48 hours. Compounds are tested at a single concentration, which is 10^-5 M for most compounds. The reported endpoint is percent growth (GI% or GIPRCNT), where numbers from 0 - 100% represent growth inhibition, and numbers from -100% - 0 represent cell death. For example, a value of 40 represents 60% growth inhibition. […]
This is part of a sample that, as a whole, favours compounds with a hit. Of some 83,000 tested, about 20% had one in any assay. Active and inactive are the calls of the source. How the source made its calls: active means growth percent below 10; inactive means the rest.

// known answers, use as guide
>  <molecule>
O=C1CCC/C=C\C[C@H]2C=CC(=O)/C2=C/C[C@H](CCc2cccc(C(F)(F)F)c2)O1

>  <growth>
-82.8% (active)

$$$$
>  <molecule>
Cc1nc(NC(=O)COc2ccc(/C=C3\Cc4ccc(Cl)cc4C3=O)cc2)sc1C

>  <growth>
111% (inactive)

$$$$
>  <molecule>
CC[C@H](C)C(=O)O[C@H]1CCC=C2C=C[C@H](C)[C@H](CC[C@@H]3CC=CC(=O)O3)[C@H]21

>  <growth>
77% (inactive)

$$$$

Count: 6. Required value per item: growth.
1. COc1cc(-c2nc3sccn3c2-c2ccnc(NCCCNS(=O)(=O)c3ccc(F)cc3)n2)ccc1F
2. O=[N+]([O-])c1ccc(Oc2nc(Nc3ccc(O[C@H]4CO[C@H]5[C@@H]4OC[C@@H]5O)c(Cl)c3)ncc2F)c(Cl)c1
3. O=c1n(Cc2ccc3ccccc3c2)ccn1Cc1ccc2ccccc2c1
4. COc1ccc(C2C(C#N)=C(N)Oc3c2sc2c(C)cccc32)cc1 (stereo not given)
5. COc1ccc(-c2[nH]ncc2-c2cc3c(c(OC)c2)OCC(=O)N3)cc1
6. C#Cc1cccc(NC(=O)Nc2ccccc2NC(=O)CCl)c1

Reply text:
40.7% (inactive)
-90.9% (active)
95.5% (inactive)
29% (inactive)
11.9% (inactive)
-94.8% [8.25 µM] (active)

Would you mind giving growth for every molecule in the list below?
1. O=C(Nc1ccc(Br)cc1F)c1cc(Br)ccc1O
2. CCc1cccc2c1S/C(=C/c1ccc(Cl)cc1)C2=O
3. COc1ccc2cc(C(C)C(=O)Nc3ccc(-c4n[nH]c(=S)n4C4CCCCC4)cc3)ccc2c1 (stereo not given)
4. Cc1c(C(=O)NCCN2CCOCC2)cn2ncnc(Oc3ccc(NC(=O)Nc4ccc(Cl)c(C(F)(F)F)c4)cc3)c12

Reply text:
1: -93.7% (active); 2: 99.4% (inactive); 3: 67.5% (inactive); 4: 6.48% (active)
